experiment: Cytotoxicity against human SH-SY5Y cells after 24 to 72 hrs by MTT assay; format: cell-based
Below, each entry is listed with its recorded CC50.

Q: For the compound Nc1cccn2cc(-c3ccco3)nc12 , report CC50.
A: > 100 µM

Q: For the compound COc1ccc(-c2cn3cc(C(=O)NCCCN4CCN(C)CC4)cc(N)c3n2)cc1OC , report CC50.
A: > 100 µM

Q: For the compound COc1ccc(-c2cn3cc(C(=O)NCCCN4CCNCC4)cc(N)c3n2)cc1OC , report CC50.
A: > 100 µM
